biological target: BRG-1 (Homo sapiens); experiment: ATPase catalytic activity of BRG-1 (ADP-Glo in vitro biochemical assay); conditions: Table 6
VALUE TYPE: BRG1 Max % Inhibition

**Query** Give reported BRG1 Max % Inhibition value for Nc1ccc(C(=O)N[C@@H](CO)C(=O)Nc2nc(-c3cccc(-c4ccncc4)c3)cs2)cc1
**Result** >90%

**Query** Output measured BRG1 Max % Inhibition for this item: Nc1ccc(C(=O)NCC(=O)Nc2nc(-c3cccc(-c4cccc(CO)c4)c3)cs2)cc1
**Result** >95%

**Query** Answer with the recorded BRG1 Max % Inhibition of CSCC[C@H](NC(=O)c1ccc(N)cc1)C(=O)Nc1nc(-c2cccc(CNC(C)=O)c2)cs1 only.
**Result** >90%

**Query** Name the recorded BRG1 Max % Inhibition of the item CN(C)Cc1cc(-c2cccc(-c3csc(NC(=O)CNC(=O)c4ccc(N)cc4)n3)c2)ccn1 in your answer.
**Result** >95%

* * *

molecular target: BRG-1 (Homo sapiens, UniProt P51532); test: ATPase catalytic activity of BRG-1 (ADP-Glo in vitro biochemical assay); conditions: Table 6
Sequence (P51532 whole entry): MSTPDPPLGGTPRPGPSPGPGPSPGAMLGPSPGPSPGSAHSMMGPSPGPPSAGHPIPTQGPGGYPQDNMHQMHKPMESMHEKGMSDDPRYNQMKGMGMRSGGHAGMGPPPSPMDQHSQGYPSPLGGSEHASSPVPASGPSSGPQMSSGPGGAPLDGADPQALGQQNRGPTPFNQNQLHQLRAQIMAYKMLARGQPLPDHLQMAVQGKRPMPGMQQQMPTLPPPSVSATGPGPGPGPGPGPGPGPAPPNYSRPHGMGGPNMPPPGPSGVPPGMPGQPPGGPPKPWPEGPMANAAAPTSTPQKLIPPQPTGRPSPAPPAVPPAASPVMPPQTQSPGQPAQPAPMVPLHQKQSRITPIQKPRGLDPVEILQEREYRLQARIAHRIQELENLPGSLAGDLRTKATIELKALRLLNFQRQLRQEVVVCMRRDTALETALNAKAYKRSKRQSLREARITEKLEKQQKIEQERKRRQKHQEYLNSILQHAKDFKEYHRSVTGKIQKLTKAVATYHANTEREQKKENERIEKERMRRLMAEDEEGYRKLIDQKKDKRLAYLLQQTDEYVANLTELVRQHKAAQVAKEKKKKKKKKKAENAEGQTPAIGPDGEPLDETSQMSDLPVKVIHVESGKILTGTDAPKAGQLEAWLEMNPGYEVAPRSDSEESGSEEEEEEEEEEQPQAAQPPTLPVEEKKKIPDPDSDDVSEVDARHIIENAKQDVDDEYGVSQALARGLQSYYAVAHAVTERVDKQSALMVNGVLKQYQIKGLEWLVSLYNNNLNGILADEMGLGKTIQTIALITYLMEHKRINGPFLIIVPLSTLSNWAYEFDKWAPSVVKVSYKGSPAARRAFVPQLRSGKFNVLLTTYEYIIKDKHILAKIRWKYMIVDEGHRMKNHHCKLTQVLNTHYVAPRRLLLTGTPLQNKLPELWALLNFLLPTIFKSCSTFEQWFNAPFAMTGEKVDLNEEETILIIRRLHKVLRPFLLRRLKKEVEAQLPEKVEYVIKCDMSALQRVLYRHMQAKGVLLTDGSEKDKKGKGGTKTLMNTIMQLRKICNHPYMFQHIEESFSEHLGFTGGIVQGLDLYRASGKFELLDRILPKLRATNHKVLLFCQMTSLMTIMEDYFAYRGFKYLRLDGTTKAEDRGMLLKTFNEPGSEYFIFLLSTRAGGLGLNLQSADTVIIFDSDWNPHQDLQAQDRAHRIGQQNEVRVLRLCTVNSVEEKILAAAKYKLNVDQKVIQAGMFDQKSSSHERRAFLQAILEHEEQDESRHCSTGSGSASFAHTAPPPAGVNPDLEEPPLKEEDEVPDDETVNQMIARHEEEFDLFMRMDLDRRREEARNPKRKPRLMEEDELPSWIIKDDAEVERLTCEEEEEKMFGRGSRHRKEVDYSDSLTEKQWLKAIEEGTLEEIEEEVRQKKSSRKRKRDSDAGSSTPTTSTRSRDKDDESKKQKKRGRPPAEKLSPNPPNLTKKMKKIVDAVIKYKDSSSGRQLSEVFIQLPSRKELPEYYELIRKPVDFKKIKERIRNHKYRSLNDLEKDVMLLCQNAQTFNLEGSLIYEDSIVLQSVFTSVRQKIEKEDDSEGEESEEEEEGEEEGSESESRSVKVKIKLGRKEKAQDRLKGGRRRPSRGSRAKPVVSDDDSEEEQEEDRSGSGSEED
Measured BRG1 Max % Inhibition accompanies every entry in the list below.

# count of solved cases: 8
>>> reading("COC(=O)c1cc(-c2cccc(-c3csc(NC(=O)CNC(=O)c4ccc(N)cc4)n3)c2)ccn1")
">95%"
>>> reading("Nc1ccc(C(=O)NCC(=O)Nc2nc(-c3cccc(N4CCC[C@@H](O)C4)c3)cs2)cc1")
">90%"
>>> reading("NCCOc1cc(-c2cccc(-c3csc(NC(=O)CNC(=O)c4ccc(N)cc4)n3)c2)ccn1")
">95%"
>>> reading("Cc1cc(-c2cccc(-c3csc(NC(=O)CNC(=O)c4ccc(N)cc4)n3)c2)ccn1")
">95%"
>>> reading("CN(C)CCNC(=O)Cc1cc(-c2cccc(-c3csc(NC(=O)CNC(=O)c4ccc(N)cc4)n3)c2)ccn1")
">95%"
>>> reading("Nc1ccc(C(=O)NCC(=O)Nc2nc(-c3cccc(-c4ccnc(N)c4)c3)cs2)cc1")
">95%"
>>> reading("Nc1ccc(C(=O)NCC(=O)Nc2nc(-c3cccc(-c4ccc(O)cc4)c3)cs2)cc1")
">95%"
>>> reading("Nc1ccc(C(=O)NCC(=O)Nc2nc(-c3ccc4[nH]ncc4c3)cs2)cc1")
">90%"

**Query** Find the measured BRG1 Max % Inhibition of COC(=O)Cn1cc(-c2cccc(-c3csc(NC(=O)CNC(=O)c4ccc(N)cc4)n3)c2)cn1 and report it.
**Result** >95%

**Query** Report measured BRG1 Max % Inhibition; entry is Nc1ccc(C(=O)NCC(=O)Nc2nc(-c3cccc(N4CCC[C@H](O)C4)c3)cs2)cc1
**Result** >90%

* * *

Measured BRG1 Max % Inhibition, listed per entry.
molecular target: BRG-1 (Homo sapiens); assay: ATPase catalytic activity of BRG-1 (ADP-Glo in vitro biochemical assay); conditions: Table 6

# example entries with known answers
>>> reading("Nc1ccc(C(=O)NCC(=O)Nc2nc(-c3cccc(-c4ccccc4F)c3)cs2)cc1")
">90%"
>>> reading("CC(=O)N(C)c1cc(-c2cccc(-c3csc(NC(=O)CNC(=O)c4ccc(N)cc4)n3)c2)ccn1")
">95%"
>>> reading("Nc1ccc(C(=O)NCC(=O)Nc2nc(-c3cccc(-c4ccnc(CC(=O)O)c4)c3)cs2)cc1")
">90%"

**Query** Quickly give me recorded BRG1 Max % Inhibition for Cn1cnc(-c2cccc(-c3csc(NC(=O)CNC(=O)c4ccc(N)cc4)n3)c2)c1
**Result** >80%

**Query** Specify BRG1 Max % Inhibition for CSCC[C@H](NC(=O)c1ccc(N)cc1)C(=O)Nc1nc(-c2ccc(C#N)c(-c3ccccc3)c2)cs1 and stop.
**Result** >95%

**Query** Return the recorded BRG1 Max % Inhibition value; entry: Nc1ccc(C(=O)NCC(=O)Nc2nc(-c3cccc(COC4CCOCC4)c3)cs2)cc1
**Result** >90%

**Query** Please indicate BRG1 Max % Inhibition recorded for Nc1ccc(C(=O)NCC(=O)Nc2nc(-c3cccc(-c4ccc(CO)cc4)c3)cs2)cc1
**Result** >80%

**Query** In one line, give reported BRG1 Max % Inhibition of the entry Nc1ccc(C(=O)NCC(=O)Nc2nc(-c3ccnc(-c4ccncc4)c3)cs2)cc1 .
**Result** >90%
